TGT: Axl (Homo sapiens, UniProt P30530)
Construct: endogenous in cells; host or cells: HeLa cells
Sequence (P30530 26-894): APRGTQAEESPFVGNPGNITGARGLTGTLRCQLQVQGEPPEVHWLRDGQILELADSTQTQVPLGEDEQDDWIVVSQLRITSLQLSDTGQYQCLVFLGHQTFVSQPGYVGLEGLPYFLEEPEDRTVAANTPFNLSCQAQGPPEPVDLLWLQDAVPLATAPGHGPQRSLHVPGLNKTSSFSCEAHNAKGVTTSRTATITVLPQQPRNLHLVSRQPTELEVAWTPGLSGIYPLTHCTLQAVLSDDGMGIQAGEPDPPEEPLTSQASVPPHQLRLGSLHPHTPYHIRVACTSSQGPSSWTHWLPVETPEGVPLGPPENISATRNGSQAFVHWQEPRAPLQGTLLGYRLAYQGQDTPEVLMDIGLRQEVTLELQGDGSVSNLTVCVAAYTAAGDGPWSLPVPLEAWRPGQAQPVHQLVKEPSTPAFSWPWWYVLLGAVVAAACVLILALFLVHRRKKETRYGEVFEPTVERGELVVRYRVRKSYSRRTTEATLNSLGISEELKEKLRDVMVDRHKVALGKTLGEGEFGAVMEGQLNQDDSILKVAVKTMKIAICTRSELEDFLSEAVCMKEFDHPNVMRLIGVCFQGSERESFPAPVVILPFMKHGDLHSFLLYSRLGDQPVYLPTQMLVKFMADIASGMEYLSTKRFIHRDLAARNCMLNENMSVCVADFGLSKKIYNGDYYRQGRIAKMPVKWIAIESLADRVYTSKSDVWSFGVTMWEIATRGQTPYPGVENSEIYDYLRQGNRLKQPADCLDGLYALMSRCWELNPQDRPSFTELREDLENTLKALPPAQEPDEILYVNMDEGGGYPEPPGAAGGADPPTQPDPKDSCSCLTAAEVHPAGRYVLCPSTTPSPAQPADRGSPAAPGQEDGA
ASSAY_INFO: Phospho-Akt in-cell Western assay (inhibition of Axl activity, Axl-antibody cross-linking stimulation)
Assay type: cell-based
SETTINGS: Hela cells, phospho-Akt readout; compounds of formula (Ia), Table 1
pIC50: −log10 of the molar value.
Would you mind telling me the reported pIC50 of each entry?

Input: Quick check: pIC50 on Axl (Homo sapiens, UniProt P30530), item Cc1cc(Nc2nc(N)n(-c3cc(-c4ccccc4)ncn3)n2)cnc1N1CCC(N2CCCC2)CC1 ?
Output: > 6.00

Input: Quick check: pIC50 on Axl (Homo sapiens, UniProt P30530), item Cc1csc2c(-n3nc(Nc4ccc(C=CCN5CCOCC5)nc4)nc3N)ncnc12 ?
Output: > 6.00

Input: Quick check: pIC50 on Axl (Homo sapiens, UniProt P30530), item Nc1nc(Nc2ccc(N3CCN(C4CC5CCC4C5)CC3)nc2)nn1-c1nccc2ccccc12 (stereo not drawn) ?
Output: > 6.00
